assay: Release rate from LDPE sachets by gravimetry; assay type: physicochemical; conditions: standard size sachet (50 cm^2); 1 ml of neat compound
observable: Estimated longevity

# example entries with known answers
INSERT INTO results (compound, observable, result) VALUES
  ('CCOC(=O)CC [Ethyl propionate]', 'Estimated longevity', '~5 days'),
  ('CCCC(=O)OCC [Ethyl butyrate]', 'Estimated longevity', '~6 days'),
  ('CC(C)CO [Isobutyl alcohol]', 'Estimated longevity', '>1 year');

Request: Name the recorded Estimated longevity for CCOC(C)=O [Ethyl acetate] .
Result: ~6 days

Request: Name the recorded Estimated longevity for CC(C)CCO [Isoamyl alcohol] .
Result: >1 year

Request: Name the recorded Estimated longevity for CCC(C)CO (stereo not drawn) [2-Methyl-butanol, 2-methyl-1-butanol] .
Result: >1 year
